All figures here come from patent US7056679.

Biological target: lactate dehydrogenase (LDH)
Assay: phage ELISA, 405 nm; LDH coated
The following binders are listed with their measured LDH (OD) values.
Give the value, in units of OD, as a plain number.

See these solved cases before continuing.
>>> observed_result("DGI-2-40F-3-B116 (peptide, not shown: large carriers) peptide: GVVRAQQGLRYELQGDRYRLRRTQWLTVTYCSPSWAFAGCAAAGAPVPYPDPLEPRP")
0.8
>>> observed_result("LHRLGQSMGGTLDHLQGWGVAAAGAPVPYPDPLEPRP (peptide, not shown: large carriers) [DGI-2-20R-4-E5]")
1.1
>>> observed_result("DGI-2-40F-3-D1 (peptide, not shown: large carriers) peptide: MGQGFHYNRQPYMSHQCYAFTFSTPFLDGDRIPHGVSRGLAAAGAPVPYPDPLEPRP")
0.8
>>> observed_result("DGI-2-40F-3-A7 (peptide, not shown: large carriers) peptide: CAYRWGLFRGPGRVDYDLQVVGIMMWPGPIPDRSSRGSVAAAAGAPVPYPDPLEPRP")
0.8
>>> observed_result("DGI-2-40F-3-D12 (peptide, not shown: large carriers) peptide: QGSAHVVRPPGVYDVPWKVGMFFHPQNWPNSWGRAYFRSGAAAGAPVPYPDPLEPRP")
1

Asked: Any idea what its LDH (OD) is? The binder is DGI-2-40F-3-A1 (SEQ ID NO: 187) (peptide, not shown: large carriers) peptide: QYFARGSFQFGLSHVLSAAAAFHLYVFCKRLSRGFGIKDDAAAGAPVPYPDPLEPRP
Given back: 0.7

Asked: Now give it for LSVFRPGQFPHVGARGVSRTAAAGAPVPYPDPLEPRP (peptide, not shown: large carriers) [DGI-2-20R-4-G32] too.
Given back: 1.1

Asked: Now give it for DGI-2-40F-3-D9 (peptide, not shown: large carriers) peptide: RRTSADTDQLSRWEGAQAFSSLRSALSERLDSLRPGLPPSAAAGAPVPYPDPLEPRP too.
Given back: 0.8

Asked: Now give it for LHFGSVMGWRPPGSLWSRPFGQVHPRSWSGSAAAGAPVPYPDPLEPRP (peptide, not shown: large carriers) [DGI-2-40F-3-D11] too.
Given back: 1.3

Asked: Now give it for DGI-2-40F-3-C10 (peptide, not shown: large carriers) peptide: WRARSSGYLFALTPNFGVPHPSSALRRMHGLMARDLRPVAAAGAPVPYPDPLEPRP too.
Given back: 0.9

Asked: Now give it for DGI-2-40F-3-B1 (peptide, not shown: large carriers) peptide: HGTRLRGVDYVMTWAGWQGYSSRKHVQQAVAGSSPGSDELAAAGAPVPYPDPLEPRP too.
Given back: 0.7
